Catalogue of compounds with associated GI50
- System: DMS-114
- assayDetails: NCI tumour cell line growth inhibition, 48 h
The source made the active and inactive calls. Rule as the data show it: active = GI50 up to about 1.1 µM and inactive = higher.

smilesRecord: N#CC(C#N)=C1NC(=O)CC(=O)N1
GI50: > 100 µM (inactive)
--
smilesRecord: C[Si]12OCCCN(CCO1)CCO2
GI50: > 100 µM (inactive)
--
smilesRecord: Cc1cc(O)nc(CNC(=O)c2cccc(C(=O)NCc3cc(O)nc(C)n3)c2)n1
GI50: > 100 µM (inactive)
--
smilesRecord: Oc1cccc2c1NC1=C(CCC/C1=C\c1ccccc1)C2
GI50: 67.8 µM (inactive)
--
smilesRecord: N#CC(C#N)=C(N)/C(C#N)=C\c1ccnc2ccccc12
GI50: 16.8 µM (inactive)
--
smilesRecord: CCN(CC)CC(C)(C)C(=O)/C=C/c1ccc(/C=C/C(=O)C(C)(C)CN(CC)CC)cc1
GI50: 0.266 µM (active)
